Experimental Target: T1, IgC2 domain of human IGSF11 fused to murine IgG2a Fc (human, UniProt Q5DX21 137-241)
T1 construct: not shown: murine IgG2a Fc-region
T1 sequence: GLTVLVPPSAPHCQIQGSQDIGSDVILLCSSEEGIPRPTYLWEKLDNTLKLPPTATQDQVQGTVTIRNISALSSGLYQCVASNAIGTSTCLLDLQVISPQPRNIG
Method Notes: IgG ELISA
pEC50: −log10 of the molar value.
Assignment: determine reported pEC50 for the given binders.

Could I get pEC50 for every one of these entries?
1. A-006 (IgG1 format) (antibody, V domains shown, human IgG1 format; also called A-006-like ABP) VH: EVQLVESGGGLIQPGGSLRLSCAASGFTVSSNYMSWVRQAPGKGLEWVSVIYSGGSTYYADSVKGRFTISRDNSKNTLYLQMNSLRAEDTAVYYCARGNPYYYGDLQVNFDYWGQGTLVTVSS VL: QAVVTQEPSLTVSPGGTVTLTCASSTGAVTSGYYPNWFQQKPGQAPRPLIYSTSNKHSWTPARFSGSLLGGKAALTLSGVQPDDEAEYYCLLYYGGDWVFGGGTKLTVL
2. A-026 (IgG1 format) (antibody, V domains shown, human IgG1 format) VH: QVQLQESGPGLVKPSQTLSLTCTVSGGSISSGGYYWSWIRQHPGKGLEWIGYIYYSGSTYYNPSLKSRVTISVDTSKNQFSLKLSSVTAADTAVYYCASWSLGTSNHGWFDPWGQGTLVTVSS VL: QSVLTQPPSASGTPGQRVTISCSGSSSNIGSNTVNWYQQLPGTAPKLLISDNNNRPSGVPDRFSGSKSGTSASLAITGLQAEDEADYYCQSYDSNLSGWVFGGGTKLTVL

1: > 9.00; 2: 7.70 to 9.00
